test: Physical stability on storage: particle size (Dv90) by laser diffraction; assay type: physicochemical; conditions: 25° C./60% RH, 6 months
measured-property: Particle size (Dv90) (μ)
Write the number in μ without appending the unit.

Entry COc1ccc2c3c1O[C@H]1C(=O)CC[C@@]4(O)[C@@H](C2)N(C)CC[C@]314 [third lot, oxycodone] : reported Particle size (Dv90) = ? 6

Entry COc1ccc2c3c1O[C@H]1C(=O)CC[C@@]4(O)[C@@H](C2)N(C)CC[C@]314 [second lot, oxycodone] : reported Particle size (Dv90) = ? 5

Entry COc1ccc2c3c1O[C@H]1C(=O)CC[C@@]4(O)[C@@H](C2)N(C)CC[C@]314 [first lot, oxycodone] : reported Particle size (Dv90) = ? 7

Entry COc1ccc2c3c1O[C@H]1C(=O)CC[C@@]4(O)[C@@H](C2)N(C)CC[C@]314 [Lot 3, oxycodone] : reported Particle size (Dv90) = ? 10

###

experiment: Chemical stability on storage: assay and impurities; type: physicochemical; details: Time 0
measured-property: Other (impurities; Table 5: >0.05%)

COc1ccc2c3c1O[C@H]1C(=O)CC[C@@]4(O)[C@@H](C2)N(C)CC[C@]314 [Non-micronized, oxycodone]	<LOQ
COc1ccc2c3c1O[C@H]1C(=O)CC[C@@]4(O)[C@@H](C2)N(C)CC[C@]314 [Lot 2, oxycodone]	<LOQ
COc1ccc2c3c1O[C@H]1C(=O)CC[C@@]4(O)[C@@H](C2)N(C)CC[C@]314 [Lot 3, oxycodone]	<LOQ
COc1ccc2c3c1O[C@H]1C(=O)CC[C@@]4(O)[C@@H](C2)N(C)CC[C@]314 [Lot 1, oxycodone]	<LOQ

###

test: Physical stability on storage: particle size (Dv90) by laser diffraction; type: physicochemical; conditions: Time 0
measured-property: Particle size (Dv90) (μ)
Write the number in μ without appending the unit.

Entry COc1ccc2c3c1O[C@H]1C(=O)CC[C@@]4(O)[C@@H](C2)N(C)CC[C@]314 [Lot 2, oxycodone] : reported Particle size (Dv90) = ? 4

Entry COc1ccc2c3c1O[C@H]1C(=O)CC[C@@]4(O)[C@@H](C2)N(C)CC[C@]314 [second lot, oxycodone] : reported Particle size (Dv90) = ? 4

Entry COc1ccc2c3c1O[C@H]1C(=O)CC[C@@]4(O)[C@@H](C2)N(C)CC[C@]314 [second high purity lot, oxycodone] : reported Particle size (Dv90) = ? 4

Entry COc1ccc2c3c1O[C@H]1C(=O)CC[C@@]4(O)[C@@H](C2)N(C)CC[C@]314 [Lot 3, oxycodone] : reported Particle size (Dv90) = ? 6

Entry COc1ccc2c3c1O[C@H]1C(=O)CC[C@@]4(O)[C@@H](C2)N(C)CC[C@]314 [first lot, oxycodone] : reported Particle size (Dv90) = ? 6

Entry COc1ccc2c3c1O[C@H]1C(=O)CC[C@@]4(O)[C@@H](C2)N(C)CC[C@]314 [third lot, oxycodone] : reported Particle size (Dv90) = ? 4

Entry COc1ccc2c3c1O[C@H]1C(=O)CC[C@@]4(O)[C@@H](C2)N(C)CC[C@]314 [first high purity lot, oxycodone] : reported Particle size (Dv90) = ? 4

Entry COc1ccc2c3c1O[C@H]1C(=O)CC[C@@]4(O)[C@@H](C2)N(C)CC[C@]314 [Lot 1, oxycodone] : reported Particle size (Dv90) = ? 4

Entry COc1ccc2c3c1O[C@H]1C(=O)CC[C@@]4(O)[C@@H](C2)N(C)CC[C@]314 [third high purity lot, oxycodone] : reported Particle size (Dv90) = ? 5

###

experiment: Physical stability on storage: particle size (Dv90) by laser diffraction; format: physicochemical; conditions: 25° C./60% RH, 12 months
measured-property: Particle size (Dv90) (μ)
Write the number in μ without appending the unit.

Entry COc1ccc2c3c1O[C@H]1C(=O)CC[C@@]4(O)[C@@H](C2)N(C)CC[C@]314 [second lot, oxycodone] : reported Particle size (Dv90) = ? 6

Entry COc1ccc2c3c1O[C@H]1C(=O)CC[C@@]4(O)[C@@H](C2)N(C)CC[C@]314 [Lot 3, oxycodone] : reported Particle size (Dv90) = ? 8

Entry COc1ccc2c3c1O[C@H]1C(=O)CC[C@@]4(O)[C@@H](C2)N(C)CC[C@]314 [first lot, oxycodone] : reported Particle size (Dv90) = ? 7

Entry COc1ccc2c3c1O[C@H]1C(=O)CC[C@@]4(O)[C@@H](C2)N(C)CC[C@]314 [third lot, oxycodone] : reported Particle size (Dv90) = ? 7

###

Assay: Chemical stability on storage: assay and impurities
Assay type: physicochemical
Settings: 40° C./75% RH, 3 mo
Method: Samples of Example 2 and additional samples comprising micronized and non-micronized oxycodone useful for exemplary dosage forms are tested for their chemical stability and physical stability. […] The impurities analyzed include (HOXY), 14-Hydroxycodeinone; (DHOXYN), 7,8-Dihydro-8,14-Dihydroxycodeinone; (DHOXY), 7,8-Dihydro-14-hydroxycodeine; (OXYE), Oxycodone ethylenolate; (OXYN), 1-Hydroxyoxycodone and Oxycodone N-oxide. […]
measured-property: OXYN

COc1ccc2c3c1O[C@H]1C(=O)CC[C@@]4(O)[C@@H](C2)N(C)CC[C@]314 [Lot 2, oxycodone]	<LOQ
COc1ccc2c3c1O[C@H]1C(=O)CC[C@@]4(O)[C@@H](C2)N(C)CC[C@]314 [Lot 1, oxycodone]	<LOQ
COc1ccc2c3c1O[C@H]1C(=O)CC[C@@]4(O)[C@@H](C2)N(C)CC[C@]314 [Lot 3, oxycodone]	<LOQ
COc1ccc2c3c1O[C@H]1C(=O)CC[C@@]4(O)[C@@H](C2)N(C)CC[C@]314 [Non-micronized, oxycodone]	<LOQ

###

Give measured Particle size (Dv10) for each item. Keep answers brief.
test: Particle size distribution by laser diffraction (Malvern Mastersizer 2000), oxycodone base; type: physicochemical; conditions: Table 1 analysis; lot 2 in duplicate
Write the number in μ without appending the unit.

Entry COc1ccc2c3c1O[C@H]1C(=O)CC[C@@]4(O)[C@@H](C2)N(C)CC[C@]314 [Non-micronized, oxycodone] : reported Particle size (Dv10) = ? 5.7

Entry COc1ccc2c3c1O[C@H]1C(=O)CC[C@@]4(O)[C@@H](C2)N(C)CC[C@]314 [Lot 1, oxycodone] : reported Particle size (Dv10) = ? 0.5

###

assay: Physical stability on storage: particle size (Dv90) by laser diffraction; assay type: physicochemical; conditions: 25° C./60% RH, 9 months
Give measured Particle size (Dv90) for each item. Keep answers brief.

Entry COc1ccc2c3c1O[C@H]1C(=O)CC[C@@]4(O)[C@@H](C2)N(C)CC[C@]314 [first lot, oxycodone] : reported Particle size (Dv90) = ? 6 μ

Entry COc1ccc2c3c1O[C@H]1C(=O)CC[C@@]4(O)[C@@H](C2)N(C)CC[C@]314 [second lot, oxycodone] : reported Particle size (Dv90) = ? 6 μ

Entry COc1ccc2c3c1O[C@H]1C(=O)CC[C@@]4(O)[C@@H](C2)N(C)CC[C@]314 [third lot, oxycodone] : reported Particle size (Dv90) = ? 6 μ

Entry COc1ccc2c3c1O[C@H]1C(=O)CC[C@@]4(O)[C@@H](C2)N(C)CC[C@]314 [Lot 3, oxycodone] : reported Particle size (Dv90) = ? 8 μ

###

assay: Chemical stability on storage: assay and impurities; format: physicochemical; conditions: 40° C./75% RH, 1 mo
measured-property: 1-HydroxyOXY

COc1ccc2c3c1O[C@H]1C(=O)CC[C@@]4(O)[C@@H](C2)N(C)CC[C@]314 [Lot 2, oxycodone]	<LOQ
COc1ccc2c3c1O[C@H]1C(=O)CC[C@@]4(O)[C@@H](C2)N(C)CC[C@]314 [Lot 1, oxycodone]	<LOQ
COc1ccc2c3c1O[C@H]1C(=O)CC[C@@]4(O)[C@@H](C2)N(C)CC[C@]314 [Lot 3, oxycodone]	<LOQ
COc1ccc2c3c1O[C@H]1C(=O)CC[C@@]4(O)[C@@H](C2)N(C)CC[C@]314 [Non-micronized, oxycodone]	<LOQ

###

Experiment: Chemical stability on storage: assay and impurities
Type: physicochemical
Conditions: 25° C./60% RH, 1 mo
Protocol: Samples of Example 2 and additional samples comprising micronized and non-micronized oxycodone useful for exemplary dosage forms are tested for their chemical stability and physical stability. […] The impurities analyzed include (HOXY), 14-Hydroxycodeinone; (DHOXYN), 7,8-Dihydro-8,14-Dihydroxycodeinone; (DHOXY), 7,8-Dihydro-14-hydroxycodeine; (OXYE), Oxycodone ethylenolate; (OXYN), 1-Hydroxyoxycodone and Oxycodone N-oxide. […]
Give measured DHOXYN (7,8-Dihydro-8,14-Dihydroxycodeinone) for each item. Keep answers brief.
Write the number in % without appending the unit.

Entry COc1ccc2c3c1O[C@H]1C(=O)CC[C@@]4(O)[C@@H](C2)N(C)CC[C@]314 [Lot 3, oxycodone] : reported DHOXYN (7,8-Dihydro-8,14-Dihydroxycodeinone) = ? 0.10

Entry COc1ccc2c3c1O[C@H]1C(=O)CC[C@@]4(O)[C@@H](C2)N(C)CC[C@]314 [Lot 1, oxycodone] : reported DHOXYN (7,8-Dihydro-8,14-Dihydroxycodeinone) = ? 0.10

Entry COc1ccc2c3c1O[C@H]1C(=O)CC[C@@]4(O)[C@@H](C2)N(C)CC[C@]314 [Non-micronized, oxycodone] : reported DHOXYN (7,8-Dihydro-8,14-Dihydroxycodeinone) = ? 0.10

Entry COc1ccc2c3c1O[C@H]1C(=O)CC[C@@]4(O)[C@@H](C2)N(C)CC[C@]314 [Lot 2, oxycodone] : reported DHOXYN (7,8-Dihydro-8,14-Dihydroxycodeinone) = ? 0.10
